- System: 786-0 renal
- experiment_notes: NCI tumour cell line growth inhibition, 48 h
experimental_readout: TGI (µM)

- CCOc1cccc(C=Nc2ccccc2SSc2ccccc2N=Cc2cccc(OCC)c2O)c1O: 19.8
- COc1ccc2c(c1)C(=O)c1c-2n(CCCn2ccnc2)c(=O)c2ccccc12: 1.66
- C1=C(CC2=C[P+](c3ccccc3)(c3ccccc3)C=C(c3ccccc3)O2)OC(c2ccccc2)=C[P+]1(c1ccccc1)c1ccccc1: 2.07
- CC(C)c1ccc(C(=O)Nc2sc3c(c2C(N)=O)CCC(=O)C3)cc1: 10.5

----------
- Test system: HCC-2998 colon
- experiment_notes: NCI tumour cell line growth inhibition, 48 h
experimental_readout: TGI (µM)

• NC(CC(=O)OCc1ccccc1)C(=O)OCc1ccccc1 (stereo not given) = 89.1
• CCSc1nnc(Sc2c3ccccc3nc3ccccc23)s1 = 25.3
• CCC(C)C(=O)OC1C(=O)OC2CC3C(C)=CC(=O)C(O)C3(C)C3C4(O)OCC23C1C(C)C4O (stereo not given) = 0.227
• CCCCCCCCCCCCCC1CCC(CC)N1 (stereo not given) = 18.7
• CCN1C(=O)CNc2ncc(-c3ccc(-c4ncn[nH]4)nc3C)nc21 = 12.4
• COc1cc(C2=NN(C(C)=O)C(c3ccc(OC(C)=O)cc3OC(C)=O)O2)c(OC(C)=O)c2ccccc12 (stereo not given) = 27.9
• COc1ccc(OC)c(/C=C/C(=O)N/N=C/c2ccc(Cl)cc2)c1 = 0.653
• CCOc1cccc(C=Nc2ccccc2SSc2ccccc2N=Cc2cccc(OCC)c2O)c1O = 44.1
• CC1CN1CC(O)C(O)CN1CC1C (stereo not given) = 23.4
• CN(CCC(=O)N1CC(CCl)c2ccc([N+](=O)[O-])cc21)CCC(=O)N1CC(CCl)c2ccc([N+](=O)[O-])cc21 (stereo not given) = 18.2
• CN1CCC23c4c5ccc(Oc6nnnn6-c6ccccc6)c4OC2c2[nH]c4ccccc4c2CC3(O)C1C5 (stereo not given) = 3.3
• O=C1NC(=O)c2ccc([N+](=O)[O-])c3cccc1c23 = 52.3
• COc1cc2c(cc1OCCCNC(=O)c1cc3ccccc3[nH]1)N=C[C@@H]1CCCN1C2=O = 10.5
• COc1ccc(C(C)c2cc3c(cc2OC)OCO3)cc1 (stereo not given) = 3.62
• CC(=O)O[C@H]1C(=O)[C@@]2(C)[C@H]([C@H](OC(=O)c3ccccc3)[C@]3(O)C[C@H](OC(=O)[C@H](O)[C@@H](NC(=O)c4ccc(N)cc4)c4ccccc4)C(C)=C1C3(C)C)[C@]1(OC(C)=O)CO[C@@H]1C[C@@H]2O = 0.0545
• OC1=C2c3ccccc3NC2Oc2cc(F)ccc21 (stereo not given) = 32.4

----------
- Tested on: MOLT-4 leukemia
- experiment_notes: NCI tumour cell line growth inhibition, 48 h
In this section we review reported TGI values for a set of compounds.
experimental_readout: TGI (µM)

- CCOC(=O)C(Cc1ccc2ccccc2c1)(Cc1ccc2ccccc2c1)C(C)=O: 8.61
- C1=C(CC2=C[P+](c3ccccc3)(c3ccccc3)C=C(c3ccccc3)O2)OC(c2ccccc2)=C[P+]1(c1ccccc1)c1ccccc1: 1.6
- COc1ccc(C(=O)COc2cccc(/C=C3\COc4ccc5ccccc5c4C3=O)c2)cc1: 18.9
- O=C1CC(Br)c2c(Br)sc(Br)c21 (stereo not given): 25.5

----------
In this section, each of the compounds is paired with its reported TGI.
- Tested on: NCI-H522 lung
- experiment_notes: NCI tumour cell line growth inhibition, 48 h
experimental_readout: TGI

• NC(=O)NC1NC(=O)NC1=O (configuration not stated) = > 100 µM
• CC12Nc3c(Cl)cc(Cl)cc3N1C(=O)c1ccccc12 (configuration not stated) = > 100 µM
• COc1c2c(cc3nc4ccccc4nc13)CCC(C(C)(C)O)C2 (configuration not stated) = > 100 µM
• CCC#CC[C@H]1C/C=C2/C(=O)C=C[C@@H]2C/C=C\CCCC(=O)O1 = 1.83 µM
• CCC(C)C(=O)OC1C(=O)OC2CC3C(C)=CC(=O)C(O)C3(C)C3C4(O)OCC23C1C(C)C4O (configuration not stated) = < 0.0212 µM
• CC(=O)OC1CC(O)C23COC(O)C1(C)C2CC(O)C1(C)C3C(=O)C(O)C2(C)C(c3ccoc3)CC3OC321 (configuration not stated) = > 100 µM
• CCCCN=C(N)c1ccc(OCCSCCOc2ccc(C(N)=NCCCC)cc2)cc1 = 12.8 µM
• Cc1noc(C)c1CCCOC1COc2ccccc2OCCOCCOc2ccccc2OC1 = > 100 µM
• O=c1cccccc1NCCCNc1cccccc1=O = > 100 µM
• COc1ccc2c(c1)C(=O)c1c-2n(CCCn2ccnc2)c(=O)c2ccccc12 = 5.5 µM
• C=C(C)C1CC=C(C)C(=O)C1 (configuration not stated) = > 100 µM
• COc1nn(Cc2ccccn2)c2ccc([N+](=O)[O-])cc12 = > 100 µM
• OC1=C2c3ccccc3NC2Oc2cc(F)ccc21 (configuration not stated) = 52.8 µM
• Cc1cc(S(=O)(=O)Nc2nc(N)nc(N3N=CCC3C)n2)c(SCC(=O)O)cc1Cl (configuration not stated) = > 10 µM
• Cc1cc(C)c(C(=O)CC(=O)c2cccnc2)c(C)c1 = > 100 µM
• Cc1ccc(S(=O)(=O)n2c(-c3ccccc3)c(-c3ccccc3)c3ccccc32)cc1 = > 100 µM
• NCC(Cl)C(O)c1cnc(N)[nH]1 (configuration not stated) = 7.1 µM
• COC(=O)c1ccccc1/C=C1\Cc2c(C)c3c(c(C)c2C1=O)CCC3 = > 100 µM
• CC(C)C[C@H]1[C@@H](OCc2ccccc2)COS(=O)(=O)N1[C@H](C)c1ccccc1 = > 100 µM
• COc1cc2c(cc1OCCCNC(=O)c1cc3ccccc3[nH]1)N=C[C@@H]1CCCN1C2=O = 0.0462 µM
• O=C1CC(Br)c2c(Br)sc(Br)c21 (configuration not stated) = 24.4 µM
• COc1ccc(C(=O)COc2cccc(/C=C3\COc4ccc5ccccc5c4C3=O)c2)cc1 = > 100 µM

----------
- System: ACHN renal
- experiment_notes: NCI tumour cell line growth inhibition, 48 h
Reported GI50 is given for each of the following molecules.
experimental_readout: GI50

• CCOC(=O)Sc1ncnc2nc[nH]c12 = 4.65 µM
• CN(C)c1ccc(N)cc1 = 4.38 µM
• COc1cc[nH]c1/C=C1\C(=O)Nc2ccccc21 = 3.5 µM

----------
- Test system: RPMI-8226 leukemia
- experiment_notes: NCI tumour cell line growth inhibition, 48 h
Reported TGI values are given for each entry in this list.
experimental_readout: TGI (µM)

* COc1cc(C(=O)NNC(=O)c2cc(Br)ccc2NC(=O)c2cccs2)cc(OC)c1OC | 43.5
* CC/C=C\C[C@@H]1C/C=C2/C(=O)C=C[C@H]2C/C=C\CCCC(=O)O1 | 1.33
* CN(C)CCCn1c2c(c3ccccc3c1=O)C(=O)c1ccccc1-2 | 5.79
* CC1=NN(c2cccc(S(=O)(=O)O)c2)C2(C1)C(Cl)C(=O)N2c1nc2ccccc2s1 (stereo not given) | 4.47
* O=C(Nc1ccc(Cl)cc1)c1cc(-c2ccc(F)cc2)c2sc(=O)[nH]c2n1 | 2.22
* CC(=O)[CH-]C(=O)c1ccccc1.CC(=O)[CH-]C(=O)c1ccccc1.O=C([O-])c1ccc([O-])cc1.O=C([O-])c1ccc([O-])cc1.[Ti+4] | 62.8
* CCN(CC)c1ccc(C(=N)c2ccc(N(CC)CC)cc2)cc1 | 2.42
* CCCCN=C(N)c1ccc(OCCSCCOc2ccc(C(N)=NCCCC)cc2)cc1 | 53.4
* CCOC(=O)c1cc(/C(=N\O)c2cc(OC)c(OC)c(OC)c2)n2cc(C)cc(C)c12 | 5.79
* CCN1C(=O)CNc2ncc(-c3ccc(-c4ncn[nH]4)nc3C)nc21 | 0.553
* COc1ccc2c(c1)CCC1C3(CCCC21C)OCCO3 (stereo not given) | 61.2
* O=C1NC(=O)c2ccc([N+](=O)[O-])c3cccc1c23 | 37.7
* Cc1ccc2nc3c(C(=O)NCCN(C)C)cccc3nc2c1 | 40.8
* Clc1nc(Cl)c2ncn(Cc3cccc(COc4cccc(OCc5cccc(Cn6cnc7c(Cl)nc(Cl)nc76)c5)c4)c3)c2n1 | 54.8
* N#Cc1nc(C2OC(COC(=O)c3ccccc3)C(OC(=O)c3ccccc3)C2OC(=O)c2ccccc2)oc1N (stereo not given) | 5.63
* O=C1C2=Cc3ccccc3CCN2c2ccccc21 | 23.3
* CN(C)CCOc1ccc(/C(=C(/CCCCCCCCCC[P+](c2ccccc2)(c2ccccc2)c2ccccc2)c2ccccc2)c2ccccc2)cc1 | 0.172
* C=CCN1C(=O)/C(=C/c2ccc(Cl)cc2)N=C1SC/C=C/C | 47.3
